Each item that follows carries a reported ED50.
- System: Staphylococcus aureus No. 50774
- assay overview: In vivo efficacy against the intravenous infection of mice by Staphylococcus aureus No. 50774
- condition notes: NO.50774, 336 h, male ddY mice, iv infection 6 LD50, oral, twice (5 minutes and 6 hours after infection), survival after 2 weeks
- Experimental: (2) in vivo efficacy against the intravenous infection of mice by Staphylococcus aureus No. 50774 Each group of 8 male mice (ddY strain, approximately 20 g) was intravenously infected with 6 LD50 of Staphylococcus aureus No. 50774 in 0.85% saline. The test compounds were each suspended in 0.2% carboxymethyl cellulose and administered orally in graded doses (200, 100, 50, 25, 12.5, 6.3, 3.1 mg/kg, etc.) to the infected mice twice, about 5 minutes and 6 hours after infection. […]

Some entries whose results are on file:
{"columns": ["smiles text", "target system", "observed property", "recorded measurement"],
 "data": [
  ["CCn1cc(C(=O)O)c(=O)c2cnc(N3CCN(Cc4ccc(Cl)cc4)CC3)nc21", "Staphylococcus aureus No. 50774", "ED50", "> 100 mg/kg"],
  ["CCn1cc(C(=O)O)c(=O)c2cnc(N3CCCC3)nc21", "Staphylococcus aureus No. 50774", "ED50", "> 200 mg/kg"]
]}

[ask] Find ED50 (Staphylococcus aureus No. 50774) for the entry `CCn1cc(C(=O)O)c(=O)c2cnc(N3CCN(Cc4ccccc4)CC3)nc21`
[reply] ~50 mg/kg
